B1: Pistol ribozyme (parent)
chain: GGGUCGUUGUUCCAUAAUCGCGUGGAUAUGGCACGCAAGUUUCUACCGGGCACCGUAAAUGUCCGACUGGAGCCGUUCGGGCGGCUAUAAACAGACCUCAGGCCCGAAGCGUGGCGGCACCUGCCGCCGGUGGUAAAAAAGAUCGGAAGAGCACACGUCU

variants of: B1; assay: aptazyme ON/OFF ratio, guanine; higher = stronger switching; co-transcriptional cleavage with and without guanine

mutation_spec	aptazyme ON/OFF ratio
U7A U8A G9A U10C U11G C12G C13A	1.11
U7G G9A U10C U11G C12U C13U	1.14
U7C U8G G9A U10A U11C C13U	1.04
U7A G9C U10C U11A C12A C13A	1.07
G9A U11A C12G C13U	1.41
U7A U8G G9U U10A C12G C13A	1.09
